PROTOCOL_SUMMARY: sensitizers of A549 cells to miR-34 induction, primary screen, imaging, A549 dox-inducible miR-34, nuclei and caspase counts (AID 1347080); note: test concentration not given here
EXPERIMENTAL_PARAMETERS: A549 miR-34 inducible, Hoechst nuclei count, 48 h; hits give low values; cell number ratio, induced over uninduced
RESULT_TYPE: fold change
Reply with just the number.

Completed entries (count: 3):
N[C@@H](CO)c1ccccc1 | 0.995
CC1C/C=C/C=C/C=C/C=C/C(O[C@@H]2O[C@H](C)[C@@H](O)[C@H](N)[C@@H]2O)CC2OC(O)(CC(O)CC3OC3/C=C/C(=O)O1)CC(O)C2C(=O)O (some centres undefined) | 0.858
C[C@]12CCC(=O)C=C1CCC1C2C(=O)C[C@@]2(C)C1CC[C@]2(O)C(=O)CO (some centres undefined) | 0.915

// switching to the query compound
Lab note: CC(=O)S[C@@H]1CC2=CC(=O)CC[C@]2(C)[C@H]2CC[C@@]3(C)[C@@H](CC[C@@]34CCC(=O)O4)C12 (some centres undefined) gave fold change of 0.863

Every entry's value here was drawn from PubChem BioAssay.
